For each entry below, report its Murine CTGF kon value.
Target Or Test System: T1, Murine CTGF (Mus musculus, UniProt P29268)
T1 construct: purchased Abbexa
T1 sequence (P29268 26-348): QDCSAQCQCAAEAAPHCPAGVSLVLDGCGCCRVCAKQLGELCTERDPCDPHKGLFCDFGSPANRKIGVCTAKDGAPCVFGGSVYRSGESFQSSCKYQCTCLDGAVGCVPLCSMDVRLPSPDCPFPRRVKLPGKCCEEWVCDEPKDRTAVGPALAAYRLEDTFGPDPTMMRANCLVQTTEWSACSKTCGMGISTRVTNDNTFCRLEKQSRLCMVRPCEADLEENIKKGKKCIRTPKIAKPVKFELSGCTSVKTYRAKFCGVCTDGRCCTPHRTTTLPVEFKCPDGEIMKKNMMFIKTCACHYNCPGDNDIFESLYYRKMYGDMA
Test: SPR binding kinetics and affinity, murine CTGF
Condition Notes: 25° C., 1:1 binding model
# number only, unit M⁻¹ s⁻¹ dropped from output

Query: Report Murine CTGF kon, nothing else, for this molecule: SEQ ID NO: 36: optimized CTGF-binding hNGAL lipocalin mutein (protein, lipocalin mutein) QDSTSDLIPAPPLSKVPLQQNFQDNQFQGKWYVVGWAGNVKLREDKQPAKMSATIYELKEDKSYDVTEVVFEQKKCHYIIKTFVPGSQPGEFTAGDIKSPPGYTSSLVRVVSTNYNQHAMVFFKKVGQNREFFWITLYGRTKELTSELKENFIRFSKSLGLPENHIVFPVPIDQCIDG
Response: 310000

Query: Report Murine CTGF kon, nothing else, for this molecule: SEQ ID NO: 11: optimized CTGF-binding hNGAL lipocalin mutein (protein, lipocalin mutein) QDSTSDLIPAPPLSKVPLQQNFQDNQFQGKWYVVGLAGNAILREDKQPAKMFATIYELKEDKSYDVTSVRFEAKSCSYTSKTFVPGSQPGEFTAGNIKSAPGQTSTLVRVVSTNYNQHAMVFFKHVSQNRETFVITLYGRTKELTSELKENFIRFSKSLGLPENHIVFPVPIDQCIDG
Response: 80100

Query: Report Murine CTGF kon, nothing else, for this molecule: SEQ ID NO: 28: optimized CTGF-binding hNGAL lipocalin mutein (protein, lipocalin mutein) QDSTSDLIPAPPLSKVPLQQNFQDNQFQGKWYVVGLAGNYRLREDKDPSKMGATIYELKEDKSYDVTQVQFDDKKCLYVIETFVPGSQPGEFTLGAIKSYPGLTSQLVRVVSTNYNQHAMVFVKKVWPNLEYFQIVLYGRTKELTSELKENFIRFSKSLGLPENHIVFPVPIDQCIDG
Response: 60700

Query: Report Murine CTGF kon, nothing else, for this molecule: SEQ ID NO: 15: optimized CTGF-binding hNGAL lipocalin mutein (protein, lipocalin mutein) QDSTSDLIPAPPLSKVPLQQNFQDNQFQGKWYVVGLAGNAILREDKQPAKMFATIYELKEDKSYDVTSVRFEAKSCKYTIKTFVPGSQPGEFTAGYIKSAPGQTSTLVRVVSTNYNQHAMVFFKHVTQNREIFVITLYGRTKELTSELKENFIRFSKSLGLPENHIVFPVPIDQCIDG
Response: 129000
